- measuredTarget: AuroraB (Homo sapiens)
- Construct: 20 μL of AuroraB FL H is for a final volume of 41 μL; His
- Sequence (Q96GD4 whole entry): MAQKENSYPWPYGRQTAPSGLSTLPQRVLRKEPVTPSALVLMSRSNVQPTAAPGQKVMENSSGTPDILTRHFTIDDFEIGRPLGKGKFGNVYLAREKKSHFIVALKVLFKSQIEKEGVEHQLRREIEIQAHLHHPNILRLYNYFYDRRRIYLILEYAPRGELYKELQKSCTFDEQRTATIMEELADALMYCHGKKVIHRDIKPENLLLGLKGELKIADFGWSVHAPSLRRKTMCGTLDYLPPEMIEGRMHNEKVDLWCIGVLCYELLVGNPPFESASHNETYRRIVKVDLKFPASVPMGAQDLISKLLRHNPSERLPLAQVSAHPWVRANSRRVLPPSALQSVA
- experimentDescription: AuroraB Homogeneous Time Resolved Fluorescent (HTRF) kinase assay
- Type: biochemical
- testSettings: average; read-out: AurB_IC50_IP (uM Avg)
Flag rule - IC50 less than 0.01 µM flags rule met; the remaining entries get rule not met.

Q: Lab log: compare recorded IC50 with 0.01 µM; is it strictly lower for Cc1csc(-c2nnc(Nc3ccc(Oc4ccnc5cccnc45)cc3)c3ccccc23)c1 ?
A: rule not met

Q: Lab log: compare recorded IC50 with 0.01 µM; is it strictly lower for COc1cnc2c(Oc3ccc(Nc4nnc(-c5cc(CO)cs5)c5ccccc45)cc3)ccnc2c1 ?
A: rule met

Q: Lab log: compare recorded IC50 with 0.01 µM; is it strictly lower for COc1cnc2c(Oc3ccc(Nc4nnc(-c5sccc5C)c5ccccc45)cc3)ccnc2c1 ?
A: rule met

Q: Lab log: compare recorded IC50 with 0.01 µM; is it strictly lower for Clc1ccc(-c2nnc(Nc3ccc(Oc4ccnc5ccncc45)cc3)c3ccccc23)cc1 ?
A: rule met

Q: Lab log: compare recorded IC50 with 0.01 µM; is it strictly lower for Clc1ccc(-c2nnc(Nc3ccc(Oc4ncnc5[nH]cnc45)cc3)c3ccccc23)cc1 ?
A: rule not met

Q: Lab log: compare recorded IC50 with 0.01 µM; is it strictly lower for COCCOCCOc1ccc2nccc(Sc3ccc(Nc4nnc(-c5ccc(Cl)cc5)c5ccccc45)cc3)c2n1 ?
A: rule not met

Q: Lab log: compare recorded IC50 with 0.01 µM; is it strictly lower for Brc1cnc2c(Oc3ccc(Nc4nnc(-c5ccccc5)c5ccccc45)cc3)ccnc2c1 ?
A: rule met

Q: Lab log: compare recorded IC50 with 0.01 µM; is it strictly lower for Cc1ccc(-c2nnc(Nc3ccc(Sc4ccnc5cc(C#N)oc45)cc3)c3ccccc23)cc1N ?
A: rule not met

Q: Lab log: compare recorded IC50 with 0.01 µM; is it strictly lower for Cc1csc(-c2nnc(Nc3ccc(Sc4ccnc5ccc(OC(F)(F)F)cc45)cc3)c3ccccc23)c1 ?
A: rule not met

Q: Lab log: compare recorded IC50 with 0.01 µM; is it strictly lower for COc1cnc2c(Oc3ccc(Nc4nnc(-c5ccc(Cl)cc5)c5ccccc45)cc3F)ccnc2c1 ?
A: rule met

Q: Lab log: compare recorded IC50 with 0.01 µM; is it strictly lower for COc1cnc2c(Oc3ccc(Nc4nnc(-c5ccc(Cl)cc5)c5c4CCC5)cc3)ccnc2c1 ?
A: rule not met

Q: Lab log: compare recorded IC50 with 0.01 µM; is it strictly lower for COc1cnc2c(Sc3ccc(Nc4nnc(N5CCC[C@@H](OC)C5)c5ccccc45)cc3)ccnc2c1 ?
A: rule not met

Q: Lab log: compare recorded IC50 with 0.01 µM; is it strictly lower for COc1cnc2c(Sc3ccc(Nc4nnc(-c5ccc(C)c(N)c5)c5ccccc45)cc3)ccnc2c1 ?
A: rule not met

Q: Lab log: compare recorded IC50 with 0.01 µM; is it strictly lower for COc1cnc2c(Sc3ccc(Nc4nnc(N5CCC(F)(F)CC5)c5ccccc45)cc3)ccnc2c1 ?
A: rule not met

Q: Lab log: compare recorded IC50 with 0.01 µM; is it strictly lower for COc1cnc2c(Sc3ccc(Nc4nnc(N5CCN(CC(F)F)CC5)c5ccccc45)cc3)ccnc2c1 ?
A: rule not met

Q: Lab log: compare recorded IC50 with 0.01 µM; is it strictly lower for CCc1cc(-c2ccccc2)nnc1Nc1ccc(Oc2ncnc3cc(OC)c(OC)cc23)cc1 ?
A: rule not met

Q: Lab log: compare recorded IC50 with 0.01 µM; is it strictly lower for Cn1cc(-c2ccc3nccc(Oc4ccc(Nc5nnc(-c6ccccc6)c6ccccc56)cc4)c3c2)cn1 ?
A: rule not met

Q: Lab log: compare recorded IC50 with 0.01 µM; is it strictly lower for COc1cnc2c(Oc3ccc(Nc4nnc(-c5ccccc5)cc4C)cc3)ccnc2c1 ?
A: rule met

Q: Lab log: compare recorded IC50 with 0.01 µM; is it strictly lower for COc1cnc2c(Oc3ccc(Nc4nnc(-c5ccc(F)c(C)c5)c5ccccc45)cc3)ccnc2c1 ?
A: rule met

Q: Lab log: compare recorded IC50 with 0.01 µM; is it strictly lower for COc1cnc2c(Oc3ccc(Nc4nnc(-c5ccc6[nH]ccc6c5)c5ccccc45)cc3)ccnc2c1 ?
A: rule met

Q: Lab log: compare recorded IC50 with 0.01 µM; is it strictly lower for COc1cccc(-c2nnc(Nc3ccc(Oc4ccnc5cc(-c6cncn6C)sc45)cc3)c3ccccc23)n1 ?
A: rule met

Q: Lab log: compare recorded IC50 with 0.01 µM; is it strictly lower for COc1cnc2c(Oc3ccc(Nc4nnc(-c5nc(C)cs5)c5ccccc45)cc3)ccnc2c1 ?
A: rule met

Q: Lab log: compare recorded IC50 with 0.01 µM; is it strictly lower for N#Cc1cc2nccc(Sc3ccc(Nc4nnc(-c5ccccc5)c5ccccc45)cc3)c2s1 ?
A: rule not met

Q: Lab log: compare recorded IC50 with 0.01 µM; is it strictly lower for COc1cc2nccc(Oc3ccc(Nc4nnc(-c5cccc(COC(C)=O)n5)c5ccccc45)cc3)c2cc1OC ?
A: rule not met

Q: Lab log: compare recorded IC50 with 0.01 µM; is it strictly lower for COc1ccc2nccc(Sc3ccc(Nc4nnc(-c5cc(C)cs5)c5ccccc45)cc3)c2n1 ?
A: rule not met

Q: Lab log: compare recorded IC50 with 0.01 µM; is it strictly lower for COc1cnc2c(Oc3ccc(Nc4nnc(-c5csc6ccccc56)c5ccccc45)cc3)ccnc2c1 ?
A: rule met

Q: Lab log: compare recorded IC50 with 0.01 µM; is it strictly lower for COc1ccc2c(Sc3ccc(Nc4nnc(-c5ccc(Cl)cc5)c5ccccc45)cc3)ccnc2c1 ?
A: rule not met

Q: Lab log: compare recorded IC50 with 0.01 µM; is it strictly lower for COCCNc1nnc(Nc2ccc(Sc3ccnc4cc(OC)cnc34)cc2)c2ccccc12 ?
A: rule not met

Q: Lab log: compare recorded IC50 with 0.01 µM; is it strictly lower for Clc1ccc(-c2nnc(Nc3ccc(Sc4ccnc5cc(Br)cnc45)cc3)c3ccccc23)cc1 [compound 301] ?
A: rule not met

Q: Lab log: compare recorded IC50 with 0.01 µM; is it strictly lower for COc1ccc2nccc(Oc3ccc(Nc4nnc(-c5ccc(Cl)cc5)c5ccccc45)cc3)c2c1 ?
A: rule met
